Origin of values: patent US20210061908A1

Molecular target: T1, extracellular domain (ECD) of human IGSF11 (VSIG3), biotinylated (human, UniProt Q5DX21 23-241, biotinylated (site not stated))
T1 construct: also called human IGSF11 protein
T1 sequence: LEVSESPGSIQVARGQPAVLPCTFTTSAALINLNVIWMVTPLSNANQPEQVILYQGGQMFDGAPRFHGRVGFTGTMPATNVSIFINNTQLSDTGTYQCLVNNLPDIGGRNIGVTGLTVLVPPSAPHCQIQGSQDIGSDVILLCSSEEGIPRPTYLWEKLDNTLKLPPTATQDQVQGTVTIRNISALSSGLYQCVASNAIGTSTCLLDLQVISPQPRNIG
Assay: ELISA, scFv; RFU grade (*** >1.0, ** 0.5-1.0, * 0.1-0.5)
Below is a list of entries, each paired with its recorded relative fluorescent units (RFU), ELISA value.

Worked set:
| binder | relative fluorescent units (RFU), ELISA |
| --- | --- |
| A-021 (scFv format) (scFv, V domains shown, scFv) VH: QVQLVQSGAEVKKPGASVKVSCKASGYTFTSYGISWVRQAPGQGLEWMGWISAYNGNTNYAQKLQGRVTMTTDTSTSTAYMELRSLRSDDTAVYYCARVPAWSGQFDYWGQGTLVTVSS VL: QSALTQPASVSGSPGQSITISCTGTSSDVGGYNYVSWYQQHPGKAPKLMIYEVTNRPSGVSDRFSGSKSANTASLTISELQAEDEAVYYCNSYTSGPTYVLFGGGTQLTVL | 0.5 to 1 rfu |
| A-035 (scFv format) (scFv, V domains shown, scFv) VH: QVQLVQSGAEVKKPGASVKVSCKASGYTFTGYYMHWVRQAPGQGLEWMGWINPNSGNTGYAQKFQGRVTMTRNTSISTAYMELSSLRSEDTAVYYCARGRLERGYWYFDLWGRGTLVTVSS VL: NFMLTQPHSVSESPGRTVTISCTRSSGSITSNYVQWYQQRPGSAPTILIYEDKERPSEVPDRFSGSIDISSNSASLTISGLKTEDEADYYCQSYGGTSQGVLFGGGTKVTVL | 0.5 to 1 rfu |

Below: the item to evaluate.
State its relative fluorescent units (RFU), ELISA for this binder: A-012 (scFv format) (scFv, V domains shown, scFv) VH: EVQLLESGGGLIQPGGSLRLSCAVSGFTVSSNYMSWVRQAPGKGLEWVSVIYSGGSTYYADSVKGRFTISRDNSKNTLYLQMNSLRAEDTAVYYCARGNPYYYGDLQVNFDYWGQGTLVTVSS VL: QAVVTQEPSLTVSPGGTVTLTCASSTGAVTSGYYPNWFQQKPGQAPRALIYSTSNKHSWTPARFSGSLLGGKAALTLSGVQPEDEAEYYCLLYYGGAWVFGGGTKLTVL
0.5 to 1 rfu
